# Tested on: Human immunodeficiency virus
# Assay procedure: Compound was tested for cellulr inhibition of HIV was determined
# Assay type: functional
# Settings: Human immunodeficiency virus 1
Observed property: IC95 (µM)
Give bare numbers, in µM.

Mol smiles	IC95 (µM)
CC(C)(C)NC(=O)[C@@H]1CN(S(=O)(=O)c2cccc3cccnc23)CCN1C[C@@H](O)C[C@@H](Cc1ccncc1)C(=O)N[C@H]1c2ccccc2C[C@H]1O	0.2
CC(C)(C)NC(=O)[C@@H]1CN(Cc2cc(Br)cs2)CCN1C[C@@H](O)C[C@@H](Cc1cccnc1)C(=O)N[C@H]1c2ccccc2C[C@H]1O	0.025
CC(C)(C)NC(=O)[C@@H]1CN(Cc2cccnc2)CCN1C[C@@H](O)C[C@@H](Cc1ccccc1)C(=O)N[C@H]1c2ccccc2C[C@H]1O	0.05

// next entry
What the record says about "CC(C)(C)NC(=O)[C@@H]1CN(Cc2c(F)cccc2F)CCN1C[C@@H](O)C[C@@H](Cc1cccnc1)C(=O)N[C@H]1c2ccccc2C[C@H]1O" : IC95 is 0.0123

====

# System: Human immunodeficiency virus
# Assay procedure: Compound was tested for cellulr inhibition of HIV was determined
# Assay type: functional
# Settings: Human immunodeficiency virus 1
Answer each item with its documented IC95.

Sample answers from the record:
Mol smiles	Test result
CC(C)(C)NC(=O)[C@@H]1CN(Cc2cccnc2)CCN1C[C@@H](O)C[C@@H](Cc1cccnc1)C(=O)N[C@H]1c2ccccc2C[C@H]1O	> 200 nM
CC(C)(C)NC(=O)[C@@H]1CN(Cc2cccnc2)CCN1C[C@@H](O)C[C@@H](Cc1ccncc1)C(=O)N[C@H]1c2ccccc2C[C@H]1O	> 200 nM

Record "CC(C)(C)NC(=O)[C@@H]1CN(S(=O)(=O)c2cccc3cccnc23)CCN1C[C@@H](O)C[C@@H](Cc1cccnc1)C(=O)N[C@H]1c2ccccc2C[C@H]1O" , field IC95: > 200 nM
